These measurements were taken from the supplement of paper PMC9112550.

# System: Escherichia coli TOP10
# METHOD_SUMMARY: shrunken log2 fold change of peptide-encoding DNA abundance (4.5 h post-induction vs induction); higher = less antimicrobial activity (less host growth inhibition)
# CONDITIONS_USED: time post-induction: 4.5 h; library: site-saturation at positions 5, 18, 19, 20
TEST_READOUT: shrunken log2 fold change
When you answer, write just the number.

> print(dat)
               biosequence  reading
1  RRIRDRPPRLPRPRPRPAWIPRP   0.0906

Data request, read-out shrunken log2 fold change, for `RRIRQRPPRLPRPRPRPYNVPRP`
-0.0265

# query: shrunken log2 fold change of entry `RRIRKRPPRLPRPRPRPPMKPRP`
0.135

Consider the sequence `RRIRHRPPRLPRPRPRPFDCPRP` and give its measured shrunken log2 fold change.
-0.186

May I ask what shrunken log2 fold change has been recorded for `RRIRHRPPRLPRPRPRPVQCPRP` ?
-0.00186

Can you look up the measured shrunken log2 fold change of `RRIRCRPPRLPRPRPRPYNAPRP` for me?
-1.23

Dear colleague, I am looking for the recorded shrunken log2 fold change of the following sequence: `RRIRFRPPRLPRPRPRPFMSPRP`
-0.0532

# query: shrunken log2 fold change of entry `RRIRLRPPRLPRPRPRPMCSPRP`
0.382

----------
# Test system: Escherichia coli TOP10
# METHOD_SUMMARY: shrunken log2 fold change of peptide-encoding DNA abundance (4.5 h post-induction vs induction); higher = less antimicrobial activity (less host growth inhibition)
# CONDITIONS_USED: time post-induction: 4.5 h; library: site-saturation at positions 5, 18, 19, 20
TEST_READOUT: shrunken log2 fold change

> print(dat)
               biosequence               test.readout  reading
1  RRIRQRPPRLPRPRPRPFWVPRP  shrunken log2 fold change    0.176

I'm curious: which shrunken log2 fold change was measured for `RRIRNRPPRLPRPRPRPHGSPRP` tested on Escherichia coli TOP10?
-0.00146

Reported shrunken log2 fold change for Escherichia coli TOP10, given `RRIRWRPPRLPRPRPRPCCFPRP` ?
-0.0922

Please state recorded shrunken log2 fold change (tested on Escherichia coli TOP10) of `RRIRSRPPRLPRPRPRPCTEPRP`
-0.241

Form field - read-out: shrunken log2 fold change; system: Escherichia coli TOP10; submitted item: `RRIRFRPPRLPRPRPRPNFMPRP`
-0.0155

For Escherichia coli TOP10, provide shrunken log2 fold change of `RRIRHRPPRLPRPRPRPTYTPRP` please.
-0.00607

Return shrunken log2 fold change measured with Escherichia coli TOP10 given this sequence: `RRIRMRPPRLPRPRPRPNFCPRP`
0.0533

What reported shrunken log2 fold change corresponds to `RRIRIRPPRLPRPRPRPDFQPRP` on Escherichia coli TOP10?
-0.125

----------
Listed below: shrunken log2 fold change values for each entry.
# System: Escherichia coli TOP10;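 note: peptides expressed intracellularly from a pBAD plasmid library in pooled LB shake-flask culture, induced with 0.3% L-arabinose, DNA abundance read by NGS, three biological replicates, DESeq2 with apeglm shrinkage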
# METHOD_SUMMARY: shrunken log2 fold change of peptide-encoding DNA abundance (4.5 h post-induction vs induction); higher = less antimicrobial activity (less host growth inhibition)
# CONDITIONS_USED: time post-induction: 4.5 h; library: site-saturation at positions 5, 18, 19, 20
Answer with a bare number; do not write a unit.

> print(dat)
               biosequence             measured.on  reading
1  RRIRNRPPRLPRPRPRPMITPRP  Escherichia coli TOP10  -0.0996
2  RRIRMRPPRLPRPRPRPKGIPRP  Escherichia coli TOP10   0.0647
3  RRIRYRPPRLPRPRPRPLMRPRP  Escherichia coli TOP10  -0.0447
4  RRIRSRPPRLPRPRPRPGSQPRP  Escherichia coli TOP10   -0.492
5  RRIRYRPPRLPRPRPRPREIPRP  Escherichia coli TOP10   -0.442

Fill in: shrunken log2 fold change of `RRIRNRPPRLPRPRPRPMWLPRP` is ___
0.0773

Sample `RRIRLRPPRLPRPRPRPLNLPRP` — what was its shrunken log2 fold change?
-0.381

// shrunken log2 fold change lookup, key: `RRIRVRPPRLPRPRPRPIMYPRP`
-0.514

So what's the measured shrunken log2 fold change for this one? `RRIRSRPPRLPRPRPRPAGRPRP`
0.287

Tell me the measured shrunken log2 fold change of `RRIRRRPPRLPRPRPRPIQHPRP` , please.
0.0238

Please report the recorded shrunken log2 fold change for `RRIRVRPPRLPRPRPRPIDRPRP` .
-0.0529

Given the sequence `RRIRARPPRLPRPRPRPCNGPRP` , what is its reported shrunken log2 fold change?
-0.139

Look up shrunken log2 fold change for this sequence: `RRIRRRPPRLPRPRPRPAPNPRP`
0.976

Give the measured shrunken log2 fold change of `RRIRLRPPRLPRPRPRPSIIPRP` .
-0.735

Requested field: shrunken log2 fold change. Item: `RRIRNRPPRLPRPRPRPKIIPRP`
-0.118
